- Tested on: MYB mRNA
- Assay: RT-qPCR splicing assay, MYB mRNA canonical (CJ) and alternative (AJ) junction
- Assay type: cell-based, human
- Measurement parameters: Homo sapiens, MYB canonical junction mRNA, RT-qPCR; read-out: MYB CJ (decrease in CJ mRNA levels, IC50)
Measured IC50 of individual entries

>  <Compound>
Cn1cc2nc(-c3ccc4nc(C5CCNCC5)ccc4n3)ccc2n1

>  <Target>
MYB mRNA

>  <Observed property>
IC50

>  <Test result>
0.1 to 1 µM

$$$$
>  <Compound>
Cc1c(O)c(-c2nc(-c3nn[nH]n3)c3cc(N4CCNCC4)ccc3n2)cc2cn(C)nc12

>  <Target>
MYB mRNA

>  <Observed property>
IC50

>  <Test result>
1 to 10 µM

$$$$
>  <Compound>
Cn1cc2cc(-c3ccc4nc(N5CC[C@]67CCN[C@H]6CC[C@H]57)ccc4n3)c(O)cc2n1

>  <Target>
MYB mRNA

>  <Observed property>
IC50

>  <Test result>
0.1 to 1 µM

$$$$

We next turn to a different compound, shown below.
Query: Requested read-out: IC50. Entry: CC(=O)c1nc(-c2cc3cn(C)nc3c(F)c2O)nc2ccc(N3CCNCC3)cc12 [Compound 513, 2,2,2-trifluoroacetate]
Response: < 0.1 µM

----------
Measured AC50 of individual entries
- System: MYB mRNA
- Assay: RT-qPCR splicing assay, MYB mRNA canonical (CJ) and alternative (AJ) junction
- Type: cell-based, human
- Measurement parameters: Homo sapiens, RT-qPCR, MYB alternative junction mRNA increase; read-out: MYB AJ (increase in alternative junction mRNA, AC50)
Counter-ions that a name gives are not always drawn.

Previously resolved entries follow.
>  <Molecule>
Cc1c(O)c(-c2nc(C3CCC3)c3cc(N4C[C@@H](C)N[C@@H](C)C4)ccc3n2)cc2cn(C)nc12 [Compound 790]

>  <AC50>
1000 to 10000 nM

$$$$
>  <Molecule>
C[C@@H]1CN(c2cc(F)c3nc(-c4cc5cn(C)nc5c(F)c4O)ccc3c2)C[C@H](C)N1 [Compound 763, hydrochloride]

>  <AC50>
< 100 nM

$$$$

Query: Requested read-out: AC50. Entry: Cc1cn2cc(-c3ncc4cc(N5C[C@H](C)N[C@@H](C)C5)ccc4n3)ccc2n1 [Compound 827]
Response: 100 to 1000 nM

Query: Further, for Cc1nc(-c2cc3cn(C)nc3c(C)c2O)nc2ccc(N3CCNC4(CC4)C3)cc12 [Compound 793] ?
Response: 100 to 1000 nM

Query: Further, for Cc1nc(-c2cc(F)c3nn(C)cc3c2)nc2ccc(N3C[C@@H](C)N[C@@H](C)C3)cc12 [Compound 781] ?
Response: 1000 to 10000 nM

Query: Further, for Cc1nc(-c2cc3cn(C)nc3cc2O)nc2ccc(N3C[C@@H](C)N[C@@H](C)C3)cc12 [Compound 782, 2,2,2-trifluoroacetate] ?
Response: 100 to 1000 nM

Query: Further, for COc1nc(-c2ncc3cc(N4C[C@H](C)N[C@@H](C)C4)ccc3n2)cn2cc(C)nc12 [Compound 823] ?
Response: 100 to 1000 nM

----------
- System: MYB mRNA
- Assay: RT-qPCR splicing assay, MYB mRNA canonical (CJ) and alternative (AJ) junction
- Format: cell-based, human
- Measurement parameters: Homo sapiens, MYB canonical junction mRNA, RT-qPCR; read-out: MYB CJ (decrease in CJ mRNA levels, IC50)
pIC50: −log10 of the molar value.
Observed property: pIC50

Previously resolved entries follow.
>  <Molecule>
CNC(=O)c1nc(-c2cc3cn(C)nc3cc2O)nc2ccc(N3CCC(N(C)C)CC3)cc12 [Compound 742]

>  <pIC50>
6.00 to 7.00

$$$$
>  <Molecule>
CC(C)(C)NC1CCN(c2ccc3nc(-c4cc5oc(C6CC6)nc5cc4O)ccc3n2)C1 (stereo not shown) [Compound 333]

>  <pIC50>
6.00 to 7.00

$$$$
>  <Molecule>
COc1cc2nc(C3CCNCC3)ccc2nc1-c1cc2c(C)nc(C)cn2n1 [Compound 343]

>  <pIC50>
5.00 to 6.00

$$$$
>  <Molecule>
Cc1nc2cc(O)c(-c3ccc4nc([C@@H]5CCNC6(CC6)C5)ccc4n3)cc2o1 (single isomer, unassigned) [Compound 498]

>  <pIC50>
6.00 to 7.00

$$$$
>  <Molecule>
Cn1cc2cc(-c3ccc4nc(N5CC[C@@H](N[C@H]6C[C@@H](F)C6)C5)ccc4n3)c(O)cc2n1 (single isomer, unassigned) [Compound 300]

>  <pIC50>
> 7.00

$$$$
>  <Molecule>
CNC(=O)c1nc(-c2cc3cn(C)nc3cc2O)nc2ccc(N3C[C@H](C)N[C@@H](C)C3)cc12 (single isomer, unassigned) [Compound 676]

>  <pIC50>
> 7.00

$$$$

Query: Provide value of pIC50 for this record tested with MYB mRNA: Cn1cc2cc(-c3ccc4nc(N5CC[C@@H](NC6(C)CC6)C5)ccc4n3)c(O)cc2n1 [Compound 220]
Response: > 7.00

Query: Further, for Cc1c(O)c(-c2ncc3nc(N4CCC5(CCN5)C4)ccc3n2)cc2cn(C)nc12 (stereo not shown) [Compound 342] ?
Response: 6.00 to 7.00

Query: Further, for Cc1nc2c(C)c(O)c(-c3ccc4nc(N5CCC(NC6(C)CC6)C5)ccc4n3)cc2o1 (stereo not shown) [Compound 309] ?
Response: > 7.00

Query: Further, for Cc1nc2c(C)c(O)c(-c3ccc4nc(N5CC[C@@H](N[C@H]6C[C@H](F)C6)C5)ccc4n3)cc2o1 (single isomer, unassigned) [Compound 352] ?
Response: > 7.00

Query: Further, for Cc1nc2c(C)c(O)c(-c3ccc4nc(N5CC[C@H](NC6CC6)C5)ncc4n3)cc2o1 [Compound 433] ?
Response: 6.00 to 7.00

Query: Further, for Cn1cc2cc(-c3ccc4nc(N5CCNC6(CC6)C5)ccc4n3)c(O)cc2n1 [Compound 121] ?
Response: 6.00 to 7.00

Query: Further, for Cn1cc2cc(-c3ccc4nc(N5CCC(NC(C)(C)C)C5)ccc4n3)c(O)c(F)c2n1 (stereo not shown) [Compound 202] ?
Response: > 7.00

Query: Further, for Cn1cc2nc(-c3ccc4nc(N5CCC(NC(C)(C)C)C5)ccc4n3)c(O)cc2n1 (stereo not shown) [Compound 298] ?
Response: > 7.00

Query: Further, for Cc1nc2c(F)c(O)c(-c3ccc4nc(N5CC[C@@H](NC6(CF)CC6)C5)ccc4n3)cc2o1 (single isomer, unassigned) [Compound 491] ?
Response: > 7.00

Data origin, for the record: patent US20250092065A1
